Here, each record is paired with measured pIC50 data.
system: HeLa; assay: Cytotoxicity against human HeLa cells after 48 hrs by LDH release assay; assay type: functional, cell-based
Scale explanation: pIC50 corresponds to minus log10 of a concentration expressed in moles per litre.

Please review the entries below; each comes with its answer.
Prompt: Give recorded pIC50. `Cn1cnc(C(=O)NNC(=O)COc2c(F)cc(C(=O)c3ccc(Cl)cc3)cc2Cl)c1`
Response: 4.26

Prompt: Give recorded pIC50. `Cc1ccc(C(=O)c2cc(F)c(OCC(=O)NNC(=O)c3cn(C)cn3)c(Cl)c2)cc1`
Response: 4.98

Prompt: Give recorded pIC50. `O=C(COc1ccc(C(=O)c2ccccc2)cc1)NNC(=O)c1ccc(=O)oc1`
Response: 4.02

Prompt: Give recorded pIC50. `O=C(COc1c(F)cc(C(=O)c2ccc(Cl)cc2)cc1Cl)NNC(=O)c1ccc(=O)oc1`
Response: 4.07

Prompt: Give recorded pIC50. `O=C(COc1c(F)cc(C(=O)c2ccc(F)cc2)cc1Cl)NNC(=O)c1ccc(=O)oc1`
Response: 4.22

Prompt: Give recorded pIC50. `Cn1cnc(C(=O)NNC(=O)COc2ccc(C(=O)c3ccccc3)cc2)c1`
Response: 4.50

Prompt: Give recorded pIC50. `Cc1ccc(C(=O)c2cc(F)c(OCC(=O)NNC(=O)c3ccc(=O)oc3)c(Cl)c2)cc1`
Response: 4.57

Let's switch to this compound now.
Prompt: Give recorded pIC50. `Cn1cnc(C(=O)NNC(=O)COc2c(F)cc(C(=O)c3ccc(F)cc3)cc2Cl)c1`
Response: 4.39

Reference for the values: ChEMBL document CHEMBL4257485
